Field: calcium oscillation score. Provide a value for each of the sequences that follow.
experimental.target: Tau
test.details: rat primary cortical neurons, FLIPR, 25 uM ASO
Bases are written 5' to 3'; sugars and linkages follow in the same order, as letters with counts (s phosphorothioate, o phosphodiester; PS: all linkages phosphorothioate). The collection does not say whether C is 5-methylated. l = locked nucleic acid (LNA); d = 2'-deoxy (DNA)

Consider the worked cases shown below.
INSERT INTO results (sequence, value_observed) VALUES
  ('TCCCAGCGTGATCTTCCATC (sugars l4 d11 l5, PS)', '55.4 % of control'),
  ('TTTTTCTTGTTCTAACCC (sugars l4 d12 l2, PS)', '56.1 % of control');

State recorded calcium oscillation score for all listed sequences.
1. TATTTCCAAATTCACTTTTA (sugars llddldldddddddddllll, PS)
2. ACTTGGGTGGAGTACGGACC (sugars l3 d14 l3, PS)
3. TCCACCCTTACACATAG (sugars l3 d12 l2, PS)

1: 152 % of control; 2: 0 % of control; 3: 40.4 % of control
